Overview of recorded Quantum Yield (ΦF) for various compounds
Experiment: Absolute fluorescence quantum yield (integrating sphere)
Assay type: physicochemical
Settings: in MeCN
Experimental: Fluorescent dyes were dissolved in the appropriate solvents to afford 1 mM solutions prior to spectroscopic analysis. A portion of 30 μL of a 1 mM solution was diluted by adding a selected solvent to a sample with a total volume of 3000 μL, affording a 1×10^−5 M solution. UV/Vis Absorption spectra were recorded in glass cuvettes on a UV-3600 Shimadzu spectrophotometer. […]
MEASURE: Quantum Yield (ΦF)

STRUCTURE SMILES	CENSOR SYMBOL	READOUT NUMBER
CCCCCCCCOc1cc(-c2ccc(C(=O)OC)cc2)c(OCCCCCCCC)cc1-c1ccc(C(=O)OC)cc1	=	0.78
CCCCCCCCOc1cc(-c2ccc(C#N)cc2)c(OCCCCCCCC)cc1-c1ccc(C#N)cc1	=	0.81
COc1cc2c(OC)cc1-c1cc[n+](cc1)Cc1ccc(cc1)C[n+]1ccc(cc1)-c1cc(OC)c(cc1OC)-c1cc[n+](cc1)Cc1ccc(cc1)C[n+]1ccc-2cc1	=	0.28
CCCCCCCCOc1cc(-c2ccc(C(F)(F)F)cc2)c(OCCCCCCCC)cc1-c1ccc(C(F)(F)F)cc1	=	0.56
CCCCCCCCOc1cc(-c2ccc([N+](=O)[O-])cc2)c(OCCCCCCCC)cc1-c1ccc([N+](=O)[O-])cc1	<	0.005
CCCCCCCCOc1cc(-c2ccc(F)cc2)c(OCCCCCCCC)cc1-c1ccc(F)cc1	=	0.13
COc1cc(-c2ccncc2)c(OC)cc1-c1ccncc1	=	0.63
